Molecular target: human GcgR (Homo sapiens)
Sequence (P47871 26-477): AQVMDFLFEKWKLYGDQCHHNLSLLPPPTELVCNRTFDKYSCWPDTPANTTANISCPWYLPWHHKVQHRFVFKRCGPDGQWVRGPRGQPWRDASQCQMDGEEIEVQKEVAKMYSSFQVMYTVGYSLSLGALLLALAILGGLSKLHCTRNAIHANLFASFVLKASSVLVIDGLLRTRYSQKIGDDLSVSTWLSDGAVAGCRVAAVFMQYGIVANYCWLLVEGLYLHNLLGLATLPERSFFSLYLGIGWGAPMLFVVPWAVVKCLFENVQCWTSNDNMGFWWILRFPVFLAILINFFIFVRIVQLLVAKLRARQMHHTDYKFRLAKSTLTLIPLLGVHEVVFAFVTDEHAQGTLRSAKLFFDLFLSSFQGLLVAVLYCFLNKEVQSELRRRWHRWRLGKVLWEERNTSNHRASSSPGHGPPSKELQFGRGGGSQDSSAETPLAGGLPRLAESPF
Assay: Functional cAMP activity in the presence of 1% HSA
Assay type: cell-based
Details: read-out: cAMP Rel EC50, hGcgR
Starred links: 1 amine or outer side, 2 acyl side, 3 side chain; linkers in the order of their positions; H or OH if unused. Non-standard residues stand in square brackets, D forms with d. Groups on a side chain read outwards from the residue. No end group written: not given here. *: point of attachment. C20 diacid = O=C(O)CCCCCCCCCCCCCCCCCCC(=O)*; C18 diacid = O=C(O)CCCCCCCCCCCCCCCCC(=O)*; αMePhe(2-F) = C[C@](N)(Cc1ccccc1F)C(=O)O; γGlu = O=C(O)[C@H](CCC(=O)[*:2])N[*:1]; εLys = N[C@@H](CCCCN[*:1])C(=O)[*:2]; αMe4Pal = C[C@](N)(Cc1ccncc1)C(=O)O; αMeY = C[C@](N)(Cc1ccc(O)cc1)C(=O)O; 4Pal = N[C@@H](Cc1ccncc1)C(=O)O; αMeL = CC(C)C[C@](C)(N)C(=O)O; αMeS = C[C@](N)(CO)C(=O)O; Orn = NCCC[C@H](N)C(=O)O; AEEA = NCCOCCOCC(=O)O; Aib = CC(C)(N)C(=O)O
Values of EC50 strictly less than 400 nM map to 1, and values of at least 400 nM map to -1.

substance="H-Y[Aib]QGT[αMePhe(2-F)]TSD[4Pal]SILLDKK([γGlu-γGlu-C18 diacid])AQ[Aib]AFIEYLEEGGPSSGAPPPSGSGE-NH2 [Example 618]" label=-1
substance="H-Y[Aib]QGTFTSDFS[Orn][αMeL]LDKK([AEEA-γGlu-C18 diacid])AQ[Aib]AFIEYLLAGGPSSGAPPPEGE-NH2 [Example 99]" label=-1
substance="H-Y[Aib]QGT[αMePhe(2-F)]TSD[4Pal][αMeS]I[αMeL]LD[Orn]K([γGlu-γGlu-C18 diacid])AQ[αMe4Pal]EFI[dE][αMeY]LVEGGPSSGEPPPSGSE-NH2 [Example 1163]" label=1
substance="H-Y[Aib]QGTFTSD[4Pal]SQ[αMeL]LDKK([AEEA-γGlu-C18 diacid])AQ[αMe4Pal]AFIEYLIE[Aib]GPSSGAPPPSGSEEE-NH2 [Example 898]" label=-1
substance="H-Y[Aib]QGTFTSD[4Pal]SK[αMeL]LDKK([AEEA-γGlu-C18 diacid])AQ[Aib]AFIEYLIE[Aib]GESSGAPPPSGS-NH2 [Example 280]" label=-1
substance="H-Y[Aib]QGT[αMePhe(2-F)]TSD[4Pal]SILLDKK([γGlu-γGlu-C18 diacid])AQ[Aib]AFIEYLEEGGPSSGEPPPSGTEE-NH2 [Example 608]" label=-1
substance="H-Y[Aib]QGT[αMePhe(2-F)]TSD[4Pal][αMeS]I[αMeL]LD[Orn]K([AEEA-γGlu-C18 diacid])AQ[Aib][Orn]FI[dE][αMeY]LIEGGPSSGEPPPEEG-NH2 [Example 462]" label=1
substance="H-Y[Aib]QGTFTSDFS[Orn][αMeL]LDKK([AEEA-γGlu-C20 diacid])AQ[Aib]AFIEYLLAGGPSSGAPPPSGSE-NH2 [Example 84]" label=-1
substance="H-Y[Aib]QGTFTSDFSK[αMeL]LDKK([AEEA-AEEA-γGlu-C18 diacid])AQ[Aib]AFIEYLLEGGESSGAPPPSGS-NH2 [Example 147]" label=-1
substance="H-Y[Aib]QGT[αMePhe(2-F)]TSD[4Pal]SI[αMeL]LD[Orn]K([AEEA-γGlu-C18 diacid])AQ[αMe4Pal][Orn]FI[dE][αMeY]LIEGGPSSGAPPPESE-NH2 [Example 755]" label=1
substance="H-Y[Aib]QGTFTSDFS[Orn][αMeL]LDKK([AEEA-γGlu-C18 diacid])AQ[Aib]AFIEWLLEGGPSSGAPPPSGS-NH2 [Example 168]" label=-1
substance="H-Y[Aib]QGTFTSD[4Pal]SK[αMeL]LDKK([AEEA-γGlu-C18 diacid])AQ[Aib]AFIEYLIA[Aib]GESSGEPPPSGS-NH2 [Example 287]" label=1
substance="H-Y[Aib]QGT[αMePhe(2-F)]TSD[4Pal][αMeS]I[αMeL]LD[Orn]K([AEEA-γGlu-C18 diacid])AQ[αMe4Pal]EFI[dE][αMeY]LIEGGPSSGAPPPEGGGE-NH2 [Example 759]" label=1
substance="Y[Aib]QGTFTSDFS[Orn][αMeL]LDKK([AEEA-γGlu-C18 diacid])AQ[Aib]AFIEWLLEGGHSSGEPPPSGE-NH2 [Example 124]" label=-1
substance="H-Y[Aib]QGT[αMePhe(2-F)]TSD[4Pal][αMeS]I[αMeL]LD[Orn]K([AEEA-γGlu-γGlu-C18 diacid])AQ[αMe4Pal]EFI[dE][αMeY]LIEGGPSSGAPPPSGSE-NH2 [Example 1178]" label=1
substance="H-Y[Aib]QGTFTSDYSI[αMeL]LDKQAAK([εLys-εLys-γGlu-C20 diacid])QFVEWLLA[Aib]GPSSGEPPPSEG-NH2 [Example 329]" label=-1
substance="H-Y[Aib]QGTFTSD[4Pal]SQ[αMeL]LDKK([AEEA-γGlu-C18 diacid])AQ[αMe4Pal]AFIEYLIE[Aib]GPSSGAPPPSSS-NH2 [Example 848]" label=-1
substance="H-Y[Aib]QGTFTSD[4Pal]SQ[αMeL]LDKK([AEEA-AEEA-γGlu-C18 diacid])AQ[αMe4Pal]AFIEYLIE[Aib]GPSSGAPPPSGS-NH2 [Example 816]" label=-1
substance="Y[Aib]Q[dA]T[αMePhe(2-F)]TSD[4Pal][αMeS]I[αMeL]LD[Orn]K([AEEA-γGlu-C18 diacid])AQ[Aib]EFI[dE][αMeY]LIEGGPSSGAPPPSGS-NH2 [Example 1203]" label=-1
substance="H-Y[Aib]QGT[αMePhe(2-F)]TSD[4Pal]SI[αMeL]LD[Orn]K([AEEA-γGlu-C18 diacid])AQ[Aib][Orn]FIEYLLEGGPSSGEPPPEEG-NH2 [Example 494]" label=1

----------
Target: hGIPR (Homo sapiens, UniProt P48546)
Sequence (P48546 22-466): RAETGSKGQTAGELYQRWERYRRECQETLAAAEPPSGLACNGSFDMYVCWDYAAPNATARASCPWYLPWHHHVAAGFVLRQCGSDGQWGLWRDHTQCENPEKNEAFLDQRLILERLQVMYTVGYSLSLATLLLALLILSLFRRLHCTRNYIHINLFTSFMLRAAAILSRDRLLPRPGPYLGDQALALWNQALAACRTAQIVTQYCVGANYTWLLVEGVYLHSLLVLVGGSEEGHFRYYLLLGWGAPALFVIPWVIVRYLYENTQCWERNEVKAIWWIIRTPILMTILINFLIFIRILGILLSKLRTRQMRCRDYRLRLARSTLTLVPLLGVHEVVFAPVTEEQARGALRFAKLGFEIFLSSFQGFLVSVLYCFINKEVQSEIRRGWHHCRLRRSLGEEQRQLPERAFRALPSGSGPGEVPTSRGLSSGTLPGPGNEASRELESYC
Test: Functional cAMP activation in the presence of 0.1% casein (no HSA);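 note: intracellular cAMP rise after 30 min at 37 °C read by HTRF against a standard curve, scaled between buffer alone (0%) and top control ligand concentration (100%), four-parameter fit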
Format: cell-based
Conditions: 0.1% casein, no HSA; geometric mean; read-out: Relative cAMP EC50, hGIPR
Starred links: 1 amine or outer side, 2 acyl side, 3 side chain; linkers in the order of their positions; H or OH if unused. Non-standard residues stand in square brackets, D forms with d. Groups on a side chain read outwards from the residue. *: point of attachment. C18 diacid = O=C(O)CCCCCCCCCCCCCCCCC(=O)*; αMePhe(2-F) = C[C@](N)(Cc1ccccc1F)C(=O)O; γGlu = O=C(O)[C@H](CCC(=O)[*:2])N[*:1]; αMe4Pal = C[C@](N)(Cc1ccncc1)C(=O)O; αMeY = C[C@](N)(Cc1ccc(O)cc1)C(=O)O; 4Pal = N[C@@H](Cc1ccncc1)C(=O)O; αMeL = CC(C)C[C@](C)(N)C(=O)O; αMeS = C[C@](N)(CO)C(=O)O; Orn = NCCC[C@H](N)C(=O)O; AEEA = NCCOCCOCC(=O)O; Aib = CC(C)(N)C(=O)O
Here the recorded EC50 is given for each entry.
propertyMeasured: EC50 (pM)

substance="H-Y[Aib]QGT[αMePhe(2-F)]TSD[4Pal][αMeS]I[αMeL]LD[Orn]K([γGlu-γGlu-C18 diacid])AQ[αMe4Pal]EFI[dE][αMeY]LIEGGPPS[Aib][Orn]PPP[Orn]SE-NH2 [Example 1228]" testedsystem="hGIPR (Homo sapiens, UniProt P48546)" propertymeasured=EC50 testresult=6.7
substance="H-Y[Aib]QGT[αMePhe(2-F)]TSD[4Pal][αMeS]I[αMeL]LD[Orn]K([γGlu-γGlu-C18 diacid])AQ[αMe4Pal]EFI[dE][αMeY]LIEGGPSSGAPPPEGGGEE-NH2 [Example 1220]" testedsystem="hGIPR (Homo sapiens, UniProt P48546)" propertymeasured=EC50 testresult=9.9
substance="H-Y[Aib]QGT[αMePhe(2-F)]TSD[4Pal][αMeS]I[αMeL]LD[Orn]K([AEEA-γGlu-C18 diacid])AQ[αMe4Pal]EFI[dE][αMeY]LIEGGPSSGAPPPEGGGEEE-NH2 [Example 1217]" testedsystem="hGIPR (Homo sapiens, UniProt P48546)" propertymeasured=EC50 testresult=10.1
substance="H-Y[Aib]QGT[αMePhe(2-F)]TSD[4Pal][αMeS]I[αMeL]LD[Orn][Orn]([AEEA-γGlu-C18 diacid])AQ[αMe4Pal]EFI[dE][αMeY]LIEGGPSSGAPPPSGS-NH2 [Example 1211]" testedsystem="hGIPR (Homo sapiens, UniProt P48546)" propertymeasured=EC50 testresult=5.92
substance="H-Y[Aib]Q[dA]T[αMePhe(2-F)]TSD[4Pal][αMeS]I[αMeL]LD[Orn]K([AEEA-γGlu-C18 diacid])AQ[Aib]EFI[dE][αMeY]LIEGGPSSGAPPPSGGGE-NH2 [Example 1223]" testedsystem="hGIPR (Homo sapiens, UniProt P48546)" propertymeasured=EC50 testresult=91.6

meta.source: patent US20240270821A1
